Target: T1, rat alpha CGRP (SEQ ID NO: 82) (rat)
T1 peptide: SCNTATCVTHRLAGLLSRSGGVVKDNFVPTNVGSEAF
Assay: cell-based or functional assay
VALUE_KIND: IC50, CGRP-induced cAMP production, L6 cells
The reply should consist of the numeric value with the unit placed after it.

IC50, CGRP-induced cAMP production, L6 cells for lipocalin mutein SEQ ID NO: 25 (designed binder, biotinylated by NHS chemistry for capture in SPR) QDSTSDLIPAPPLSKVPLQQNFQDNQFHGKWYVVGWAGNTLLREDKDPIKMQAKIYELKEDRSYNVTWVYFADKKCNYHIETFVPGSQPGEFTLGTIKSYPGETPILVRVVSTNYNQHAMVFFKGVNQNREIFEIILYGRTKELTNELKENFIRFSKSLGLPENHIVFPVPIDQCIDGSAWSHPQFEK is 0.06 nM
